- Tested on: Enterococcus sp.
- METHOD: in vitro antibacterial evaluation, MIC by broth dilution
- Assay type: cell-based
- ASSAY CONDITIONS: broth dilution, inoculum 5×10^5 CFU/mL, 18 hours at 35° C.; strain GC 3059
METRIC: MIC Enterococcus faecalis (GC 3059)

// solved cases for MIC Enterococcus faecalis (GC 3059) follow
compound="CC(c1ccccc1)C1NC(=O)CNC(=O)C(CO)NC(=O)C(C(O)C2CNC(=N)N2C2OC(CO)C(O)C3OC(C)(C)OC32)NC(=O)C(C(O)C2CNC(=N)N2)NC(=O)C(Cc2ccc(OC3OC(CO)C(OC4OC(CO)C(O)C(O)C4O)C4OC(C)(C)OC34)cc2)NC1=O (stereo not shown)" tgt="Enterococcus sp." test_result=">128 µg/mL"
compound="CC(c1ccccc1)C1NC(=O)CNC(=O)C(CO)NC(=O)C(C(O)C2CNC(=N)N2C2OC(CO)C(O)C(O)C2O)NC(=O)C(C(O)C2CNC(=N)N2)NC(=O)C(Cc2ccc(OC3OC(CO)C(OC4OC5COC(c6ccccc6)OC5C(O)C4O)C(O)C3O)c(I)c2)NC1=O (stereo not shown)" tgt="Enterococcus sp." test_result=">64 µg/mL"
compound="CC(c1ccccc1)C1NC(=O)CNC(=O)C(CO)NC(=O)C(C(O)C2CNC(=N)N2C2OC(CO)C(O)C(O)C2O)NC(=O)C(C(O)C2CNC(=N)N2)NC(=O)C(Cc2ccc(OC3OC(CO)C(OC4OC(CO)C(OCc5ccc(OCc6ccccc6)cc5)C(O)C4O)C(O)C3O)cc2)NC1=O (stereo not shown) [Example 231a]" tgt="Enterococcus sp." test_result="1 to 2 µg/mL"

Proceed to the following item.
Input line: Fill blank: measured MIC Enterococcus faecalis (GC 3059) of the compound COc1ccc2cc(COC3C(CO)OC(OC4C(CO)OC(Oc5ccc(CC6NC(=O)C(C(C)c7ccccc7)NC(=O)CNC(=O)C(CO)NC(=O)C(C(O)C7CNC(=N)N7C7OC(CO)C(O)C(O)C7O)NC(=O)C(C(O)C7CNC(=N)N7)NC6=O)cc5)C(O)C4O)C(O)C3O)ccc2c1 (stereo not shown) [Example 230a] is ____.
Output line: 2 to 4 µg/mL
